Values were extracted from patent US20210115124A1.

kon overview
Target: T1, human VEGF (hVEGF) (human, UniProt P15692 181-395)
T1 construct: also called VEGF-A
T1 sequence: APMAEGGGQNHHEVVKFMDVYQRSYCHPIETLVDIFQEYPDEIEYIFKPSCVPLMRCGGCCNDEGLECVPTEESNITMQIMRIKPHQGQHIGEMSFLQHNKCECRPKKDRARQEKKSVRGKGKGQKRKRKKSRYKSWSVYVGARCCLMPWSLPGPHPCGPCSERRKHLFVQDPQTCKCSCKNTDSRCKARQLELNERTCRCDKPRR
Assay: SPR single-cycle;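 note: fab variants injected over hVEGF immobilized on a CM5 chip (Biacore T200), threefold dilution series from 0.02 to 50 nM, kinetics fitted with a 1:1 Langmuir model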
measurement_name: kon

INSERT INTO measurements (binder, recorded_measurement) VALUES
  ('G6.31 HC-S82bE (Fab, name in Kabat numbering, V domains shown, Fab) VH: EVQLVESGGGLVQPGGSLRLSCAASGFTISDYWIHWVRQAPGKGLEWVAGITPAGGYTYYADSVKGRFTISADTSKNTAYLQMNELRAEDTAVYYCARFVFFLPYAMDYWGQGTLVTVSS VL: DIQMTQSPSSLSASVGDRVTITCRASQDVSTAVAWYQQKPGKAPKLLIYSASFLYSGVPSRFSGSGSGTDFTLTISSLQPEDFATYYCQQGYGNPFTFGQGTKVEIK', '437000 M⁻¹ s⁻¹'),
  ('G6.31 LC-S50R (Fab, V domains shown, Fab) VH: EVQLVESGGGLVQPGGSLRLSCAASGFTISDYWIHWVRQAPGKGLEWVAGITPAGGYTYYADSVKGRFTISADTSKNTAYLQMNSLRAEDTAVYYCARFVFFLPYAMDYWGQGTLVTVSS VL: DIQMTQSPSSLSASVGDRVTITCRASQDVSTAVAWYQQKPGKAPKLLIYRASFLYSGVPSRFSGSGSGTDFTLTISSLQPEDFATYYCQQGYGNPFTFGQGTKVEIK', '245000 M⁻¹ s⁻¹'),
  ('G6.31 LC-P40E (Fab, V domains shown, Fab) VH: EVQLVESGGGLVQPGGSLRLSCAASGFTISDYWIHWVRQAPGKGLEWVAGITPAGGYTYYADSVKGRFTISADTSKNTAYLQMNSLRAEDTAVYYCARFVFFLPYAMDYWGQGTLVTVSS VL: DIQMTQSPSSLSASVGDRVTITCRASQDVSTAVAWYQQKEGKAPKLLIYSASFLYSGVPSRFSGSGSGTDFTLTISSLQPEDFATYYCQQGYGNPFTFGQGTKVEIK', '30300 M⁻¹ s⁻¹');
